Would you mind telling me the reported IC50 of each entry?
Target: Human HDAC4 (Homo sapiens, UniProt P56524)
Construct: amino acids 627-1085 with N-terminal GST tag; GST (N); host or cells: baculovirus expression system
Sequence (P56524 627-1084 limits assumed): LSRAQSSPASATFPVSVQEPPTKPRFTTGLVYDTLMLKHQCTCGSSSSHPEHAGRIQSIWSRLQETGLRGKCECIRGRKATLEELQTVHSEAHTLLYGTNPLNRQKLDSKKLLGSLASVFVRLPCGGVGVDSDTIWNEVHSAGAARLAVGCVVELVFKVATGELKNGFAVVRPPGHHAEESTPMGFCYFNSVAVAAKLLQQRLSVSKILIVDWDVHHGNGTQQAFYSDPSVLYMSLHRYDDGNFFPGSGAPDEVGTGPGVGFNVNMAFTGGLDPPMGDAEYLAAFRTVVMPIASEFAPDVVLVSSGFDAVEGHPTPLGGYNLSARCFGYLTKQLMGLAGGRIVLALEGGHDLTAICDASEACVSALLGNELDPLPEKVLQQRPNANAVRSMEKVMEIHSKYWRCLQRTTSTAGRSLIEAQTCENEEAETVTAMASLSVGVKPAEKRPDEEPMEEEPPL
Assay: HDAC4 biochemical assay, class IIa-specific substrate
Conditions: read-out: HDAC Isoform IC50 (nM) 4

COc1ccc(N(Cc2ccc(-c3noc(C(F)(F)F)n3)s2)c2cnccn2)nn1 = ≤ 1000 nM
O=C(O)c1cnnc(N(Cc2ccc(-c3noc(C(F)(F)F)n3)s2)c2cnccn2)c1 = ≤ 10000 nM
Cc1nccc(N(Cc2ccc(-c3noc(C(F)(F)F)n3)s2)c2cnccn2)n1 = ≤ 1000 nM
COc1ncncc1N(Cc1ccc(-c2noc(C(F)(F)F)n2)s1)c1cnccn1 = ≤ 1000 nM
O=C(c1cnnc(N(Cc2ccc(-c3noc(C(F)(F)F)n3)s2)c2cnccn2)c1)N1CC[S+]([O-])CC1 = ≤ 10000 nM

Give measured IC50 for every item shown.
1. O=C(c1ccc(N(Cc2ccc(-c3noc(C(F)(F)F)n3)s2)c2cnccn2)nn1)N1CC(O)(C(F)(F)F)C1
2. CS(=O)(=O)c1nccc(N(Cc2ccc(-c3noc(C(F)(F)F)n3)s2)c2cnccn2)n1
3. COc1ncc(N(Cc2ccc(-c3noc(C(F)(F)F)n3)s2)c2cnccn2)cn1
4. FC(F)(F)c1nc(-c2ccc(CN(c3cnccn3)c3cccc(N4CCOCC4)n3)s2)no1
5. O=C(c1cnnc(N(Cc2ccc(-c3noc(C(F)(F)F)n3)s2)c2cnccn2)c1)N1CCCC1
6. FC(F)(F)c1cnnc(N(Cc2ccc(-c3noc(C(F)(F)F)n3)s2)c2cccnc2)c1
7. FC(F)(F)c1nc(-c2ccc(CN(c3cnccn3)c3cc(N4CCOCC4)ncn3)s2)no1
8. O=C(O)c1cnnc(N(Cc2sc(-c3noc(C(F)(F)F)n3)cc2F)c2cnccn2)c1

Result:
["≤ 500 nM", "≤ 10000 nM", "≤ 500 nM", "≤ 10000 nM", "≤ 10000 nM", "≤ 10000 nM", "≤ 10000 nM", "≤ 10000 nM"]

Give measured IC50 for every item shown.
1. FC(F)(F)c1nc(-c2ccc(CN(c3cnc(C4CC4)nc3)c3cnccn3)s2)no1
2. Nc1cnnc(N(Cc2ccc(-c3noc(C(F)(F)F)n3)s2)c2cnccn2)c1
3. FC(F)(F)c1nc(-c2ccc(CN(c3ccc(N4CCOCC4)cn3)c3cnccn3)s2)no1

Result:
["≤ 500 nM", "≤ 500 nM", "≤ 10000 nM"]

* * *

Biological target: Human HDAC4 (Homo sapiens)
Construct: amino acids 627-1085 with N-terminal GST tag; GST (N); host or cells: baculovirus expression system
Assay: HDAC4 biochemical assay, class IIa-specific substrate
Details: read-out: HDAC Isoform IC50 (nM) 4
Protocol: Activity against all zinc-dependent HDACs 1 to 11 was assessed by using an acetylated AMC-labeled peptide substrate. The substrate RHKK(Ac)AMC was used for HDAC1, HDAC2, HDAC3, HDAC6 and HDAC10; the substrate used for HDAC8 was RHK(Ac)K(Ac)AMC. Activity against the class IIa HDACs (HDAC4, 5, 7, 9) and HDAC11 was determined using a class IIa-specific substrate, BOC-Lys(trifluoroacetyl)-AMC (“Trifluoroacetyl Lysine”; see Lahm et al, 2007, PNAS, 104, 17335-17340). […]
Recorded Endpoint: IC50

FC(F)(F)c1nc(-c2ccc(CN(c3cnccn3)c3cc(CN4CCCC4)ccn3)s2)no1 [Example GG] = ≤ 1000 nM
Cc1cncnc1N(Cc1ccc(-c2noc(C(F)(F)F)n2)s1)c1cnccn1 [Example CO] = ≤ 500 nM

Give measured IC50 for every item shown.
1. COc1cnc(N(Cc2ccc(-c3noc(C(F)(F)F)n3)s2)c2cnccn2)nc1 [Example AY]
2. COCc1nccnc1N(Cc1ccc(-c2noc(C(F)(F)F)n2)s1)c1cnccn1 [Example BG]
3. CS(=O)(=O)c1ncc(N(Cc2ccc(-c3noc(C(F)(F)F)n3)s2)c2cnccn2)cn1 [Example CW]
4. FC(F)(F)c1nc(-c2ccc(CN(c3cnccn3)c3nccc4cnccc34)s2)no1 [Example AK]
5. CS(=O)(=O)c1ccc(N(Cc2ccc(-c3noc(C(F)(F)F)n3)s2)c2cnccn2)nn1 [Example DL]
6. O=C(c1ccc(N(Cc2ccc(-c3noc(C(F)(F)F)n3)s2)c2cnccn2)nn1)N1C[C@@H]2C[C@H]1CO2 [Example FE]
7. FC(F)(F)c1nc(-c2ccc(CN(c3cnccn3)c3nccc4ncccc34)s2)no1 [Example AJ]

Result:
1: ≤ 10000 nM; 2: ≤ 10000 nM; 3: ≤ 500 nM; 4: ≤ 500 nM; 5: ≤ 500 nM; 6: ≤ 500 nM; 7: ≤ 10000 nM

Give measured IC50 for every item shown.
1. FC(F)(F)c1nc(-c2ccc(CN(c3cnccn3)c3cc(CN4CCOCC4)ccn3)s2)no1 [Example GI]
2. Cc1cncc(N(Cc2ccc(-c3noc(C(F)(F)F)n3)s2)c2cncc(C)n2)n1 [Example BX]

Result:
≤ 10000 nM
> 10000 nM

* * *

Would you mind telling me the reported IC50 of each entry?
Biological target: Recombinant human HDAC6 (Homo sapiens)
Construct: full length, MW=159 kDa; GST (N); host or cells: Sf9 insect cells (baculovirus)
Sequence (Q9UBN7 1-1215): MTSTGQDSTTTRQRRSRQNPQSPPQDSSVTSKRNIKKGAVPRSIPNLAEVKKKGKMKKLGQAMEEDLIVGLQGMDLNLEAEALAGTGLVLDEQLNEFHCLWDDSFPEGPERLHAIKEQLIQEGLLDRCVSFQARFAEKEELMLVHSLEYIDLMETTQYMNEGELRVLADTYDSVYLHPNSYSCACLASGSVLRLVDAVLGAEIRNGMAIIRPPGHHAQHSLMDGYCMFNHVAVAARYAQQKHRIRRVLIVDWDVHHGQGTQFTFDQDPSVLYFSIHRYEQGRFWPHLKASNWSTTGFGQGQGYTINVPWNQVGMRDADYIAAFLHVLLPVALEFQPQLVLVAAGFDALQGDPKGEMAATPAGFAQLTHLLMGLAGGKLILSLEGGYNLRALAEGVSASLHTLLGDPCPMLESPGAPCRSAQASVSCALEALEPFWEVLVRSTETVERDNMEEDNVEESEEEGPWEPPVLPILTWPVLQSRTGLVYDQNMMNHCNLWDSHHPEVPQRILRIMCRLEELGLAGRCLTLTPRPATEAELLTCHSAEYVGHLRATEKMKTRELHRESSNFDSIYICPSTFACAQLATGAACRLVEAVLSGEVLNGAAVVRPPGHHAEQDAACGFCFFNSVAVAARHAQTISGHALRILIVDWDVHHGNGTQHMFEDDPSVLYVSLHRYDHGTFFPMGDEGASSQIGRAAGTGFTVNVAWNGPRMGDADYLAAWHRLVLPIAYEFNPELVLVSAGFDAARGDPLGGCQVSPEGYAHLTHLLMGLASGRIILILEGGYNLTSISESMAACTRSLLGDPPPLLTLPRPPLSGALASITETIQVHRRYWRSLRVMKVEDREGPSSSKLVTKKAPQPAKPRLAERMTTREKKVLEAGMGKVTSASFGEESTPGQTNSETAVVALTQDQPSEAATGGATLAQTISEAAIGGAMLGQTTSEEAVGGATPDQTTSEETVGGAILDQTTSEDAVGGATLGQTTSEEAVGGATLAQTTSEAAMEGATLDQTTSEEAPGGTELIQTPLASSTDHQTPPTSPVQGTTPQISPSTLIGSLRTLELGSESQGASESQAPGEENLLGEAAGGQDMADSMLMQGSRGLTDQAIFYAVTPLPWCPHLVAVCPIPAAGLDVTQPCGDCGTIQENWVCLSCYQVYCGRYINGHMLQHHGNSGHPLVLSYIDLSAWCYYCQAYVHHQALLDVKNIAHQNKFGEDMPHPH
Test: HDAC6 biochemical assay, AMC-labeled peptide substrate
Conditions: HDAC6; read-out: HDAC Isoform IC50 (nM) 6

Recorded IC50, per entry:
O=C(c1cncc(N(Cc2ccc(-c3noc(C(F)(F)F)n3)s2)c2cnccn2)c1)N1CCOCC1 [Example GR] = ≤ 10000 nM
FC(F)(F)c1nc(-c2ccc(CN(c3cnccn3)c3ccc(N4CCCC4)nn3)s2)no1 [Example DI] = ≤ 500 nM
O=C(c1nccnc1N(Cc1ccc(-c2noc(C(F)(F)F)n2)s1)c1cnccn1)N1CCC1 [Example GP] = ≤ 1000 nM
O=C(c1ccc(N(Cc2ccc(-c3noc(C(F)(F)F)n3)s2)c2cnccn2)nn1)N1CCOCC1 [Example DS] = ≤ 500 nM
CS(=O)(=O)c1ccc(N(Cc2ccc(-c3noc(C(F)(F)F)n3)s2)c2cnccn2)nn1 [Example DL] = ≤ 500 nM

Give measured IC50 for every item shown.
1. O=C(c1cnnc(N(Cc2ccc(-c3noc(C(F)(F)F)n3)s2)c2cnccn2)c1)N1CCC1 [Example FS]
2. CS(=O)(=O)c1cnc(N(Cc2ccc(-c3noc(C(F)(F)F)n3)s2)c2cnccn2)cn1 [Example BL]
3. Cc1nc(N2CCCC2)cc(N(Cc2ccc(-c3noc(C(F)(F)F)n3)s2)c2cnccn2)n1 [Example CQ]
4. FC(F)(F)c1cnnc(N(Cc2ccc(-c3noc(C(F)(F)F)n3)s2)c2ccc(N3CCOCC3)nn2)c1 [Example EX]

Result:
["≤ 500 nM", "≤ 10000 nM", "≤ 10000 nM", "≤ 1000 nM"]

Give measured IC50 for every item shown.
1. FC(F)(F)c1nc(-c2ccc(CN(c3cnccn3)c3ncccn3)s2)no1 [Example AS]
2. Cc1cnc(C)c(N(Cc2ccc(-c3noc(C(F)(F)F)n3)s2)c2cnccn2)n1 [Example BU]

Result:
1. ≤ 1000 nM
2. ≤ 10000 nM
